Source: PubChem BioAssay (NCI)

- Test system: MDA-MB-468 breast
- procedureSummary: NCI tumour cell line growth inhibition, 48 h; in the data active = GI50 below about 0.43 µM; inactive = the rest
Respond only with the outcome that fits, drawn from t (active), f (inactive)

COC(=O)[C@@H](C)C[C@H](Cc1ccccc1)NC(=O)c1cccc([C@@H](C[C@H](C(C)C)N(C)C(=O)[C@@H](NC(=O)[C@H]2CCCCN2C)C(C)C)OC(C)=O)n1: t
CC(CCC/C=C/CCCN(C)C(=N)N)CC(C)C1OC(=O)C(C)C(O)/C=C/C(C)C(O)C(C)C(O)C(C)C(O)CCCC(O)CC2(O)OC(CC(OC(=O)CC(=O)O)CC(O)CC(O)C(C)C(O)/C=C/C=C/C1C)CC(O)C2O (stereo not given): f
COc1cc2c(cc1Nc1nc(Nc3ccsc3C(N)=O)c3cc[nH]c3n1)N(C(=O)CN(C)C)CCC2: t
COc1cc(C2C3=C(COC3=O)N(CCO)c3cc4c(cc32)CCC4)cc(OC)c1OC (stereo not given): t
Cc1cc(F)cc(NS(=O)(=O)c2ccc(-c3cnc(C4CC4)o3)cc2)c1: t
CC(=O)OC1C(OC/C2=C/C3[C@@H](C(C)C)CC=C(C)[C@@H]3CC(OC(=O)/C=C/c3cn(C)cn3)[C@]3(C)C=C[C@@]2(O)O3)OCC(O)C1O (stereo not given in full): t
COc1c(C)cnc(Cn2cnc3c(Cl)nc(N)nc32)c1C: t
CNCc1ccc(C)c(NC(=O)c2ccc(Nc3nc(-c4ccccc4)c4ccccc4n3)cc2)c1: f

INPUT: Status in this test for `Cn1c([N+](=O)[O-])cnc1/C=C1\Oc2ccc(Cl)cc2C1=O` ?
OUTPUT: f

INPUT: Status in this test for `C=CC(=O)N1CC[C@@H](Oc2nc(Nc3ccc(N4CCC(N5CCN(C)CC5)CC4)cc3)c(C(N)=O)nc2CC)C1` ?
OUTPUT: f
